Give measured cell viability for each item. Keep answers brief.
System: MARIMO
Assay Text: cell viability relative to vehicle control; higher = less cytotoxic;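 note: after 48 h exposure read by CellTiter-Glo luminescence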
Settings: 10 µM; SRSF2 genotype: SRSF2 wt/wt
Answers are plain numbers, in %.

Solved entries:
[
  {
    "Molecule": "O=C(CCc1ccc(O)cc1)c1c(O)cc(O)cc1O[C@@H]1O[C@H](CO)[C@@H](O)[C@H](O)[C@H]1O [Phlorizin (Phloridzin)]",
    "Assay Value": 102
  },
  {
    "Molecule": "OC[C@H]1O[C@H](O[C@H]2[C@H](O)[C@@H](O)C(O)O[C@@H]2CO)[C@H](O)[C@@H](O)[C@@H]1O (mixture of isomers) [Maltose]",
    "Assay Value": 102
  },
  {
    "Molecule": "Cc1cn(CCN2CCN(c3ccccc3-c3cc(C#N)cc(C(=O)NCCCN4CCCC4)c3)CC2)c2ccccc12",
    "Assay Value": 0.22
  },
  {
    "Molecule": "OC[C@H]1O[C@H](OC[C@H]2O[C@H](OC[C@H]3O[C@H](O[C@]4(CO)O[C@H](CO)[C@@H](O)[C@@H]4O)[C@H](O)[C@@H](O)[C@@H]3O)[C@H](O)[C@@H](O)[C@H]2O)[C@H](O)[C@@H](O)[C@H]1O [Stachyose]",
    "Assay Value": 109
  },
  {
    "Molecule": "CCOCCn1c(C2CCN(CCc3ccc(C(C)(C)C(=O)O)cc3)CC2)nc2ccccc21 [Bilastine]",
    "Assay Value": 104
  }
]

Give measured cell viability for every item shown.
1. O=C(O)c1ccccc1-c1c2cc(Br)c(=O)c(Br)c-2oc2c(Br)c(O)c(Br)cc12 [Eosin Y Disodium]
2. O=C1C(=C(O)C=Cc2ccc(O)cc2)C(O)=C([C@@H]2O[C@H](CO)[C@@H](O)[C@H](O)[C@H]2O)C(=O)C1(O)[C@@H]1O[C@H](CO)[C@@H](O)[C@H](O)[C@H]1O (stereo not given in full) [Hydroxy safflor yellow A]
3. Nc1nc(=O)n([C@@H]2CS[C@H](CO)O2)cc1F [Emtricitabine]
4. COc1ccc(N2C(=O)/C(=C\c3ccc([N+](=O)[O-])s3)SC2=S)cc1

[92.8, 97.3, 106, 52.8]

Quick one: give me cell viability for each item below, same order please.
1. O=c1c(O)c(-c2ccc(O)cc2O)oc2cc(O)cc(O)c12 [Morin hydrate (Aurantica)]
2. Cc1[nH]c(/C=C2\C(=O)Nc3ccccc32)c(C)c1CCC(=O)O [Orantinib (TSU-68, SU6668)]
3. Cc1[nH]c2ccccc2c1CCNC(=O)c1cccs1
4. O=C(NCc1ccc(Oc2ccccc2)cc1)c1nc(-c2cc(Br)c(O)c(Br)c2)no1
5. CN(C[C@@H]1COCCO1)S(=O)(=O)Nc1ccc2ccc3ncc(-c4cnn(C)c4)cc3c(=O)c2c1

1: 108; 2: 103; 3: 97.2; 4: 91.8; 5: 72.6

Note to self: cell viability recorded for N[C@@H]1CN(c2c(F)cc3c(=O)c(C(=O)O)cn([C@@H]4C[C@@H]4F)c3c2Cl)CC12CC2 [Sitafloxacin hydrate] was 105

* * *

System: MOLM14
Assay Text: cell viability relative to vehicle control; higher = less cytotoxic
Settings: 10 µM; SRSF2 genotype: SRSF2 wt/wt
Structures can show the parent of a compound that is named as a salt.
So I've got a bunch of compounds here, and I need their cell viability values.
Numbers only, in %.

Sample answers from the record:
[
  {
    "Compound": "OC[C@H]1O[C@@H](O[C@@H]2OC=C[C@H]3[C@H](O)[C@@H]4O[C@]4(CO)[C@@H]23)[C@H](O)[C@@H](O)[C@@H]1O",
    "cell viability, %": 105
  },
  {
    "Compound": "NS(=O)(=O)c1cc2c(cc1Cl)NC(C(Cl)Cl)NS2(=O)=O (stereo unspecified) [Trichlormethiazide (Achletin)]",
    "cell viability, %": 106
  },
  {
    "Compound": "CCCCCCCCCCCCCCCCCC(=O)O",
    "cell viability, %": 108
  }
]

# batch size: 5; output cell viability per entry
1. Cc1ccc2c(=O)c3cccc(CC(=O)O)c3oc2c1C
2. CN[C@@H]1[C@H](O)[C@H](NC)[C@H]2O[C@@]3(O)C(=O)C[C@@H](C)O[C@H]3O[C@@H]2[C@H]1O [Spectinomycin 2HCl]
3. C=Cc1c(C)c2cc3nc(cc4[nH]c(cc5nc(cc1[nH]2)C(C)=C5CCC(=O)O)c(CCC(=O)OC)c4C)C1(C)C3=CC=C(C(=O)OC)C1C(=O)OC (stereo unspecified)
4. CC(C)c1cnn2c(NCc3ccccc3)cc(NCCCCCCN)nc12
5. CC(=O)N1CCN(c2ccc(OCC3COC(Cn4ccnc4)(c4ccc(Cl)cc4Cl)O3)cc2)CC1 (stereo unspecified)

1. 87.8
2. 99
3. 59.8
4. 98.5
5. 26.2

Dear colleague, could you please provide cell viability for the compounds listed below?
1. CCCCCCCC(=O)CCc1ccc(O)c(OC)c1
2. CC(c1cc2ccccc2s1)N(O)C(N)=O (stereo unspecified)

1: 104; 2: 98.1

Provide cell viability for all items below, preserving their order.
1. O=C(O)c1cc(/N=N/c2ccc(O)c(C(=O)O)c2)ccc1O [Olsalazine Sodium]
2. Clc1ccc2nsnc2c1NC1=NCCN1 [Tizanidine HCl]
3. CC[C@H]1OC(=O)[C@H](C)[C@@H](O[C@H]2C[C@@](C)(OC)[C@@H](O)[C@H](C)O2)[C@H](C)[C@@H](O[C@@H]2O[C@H](C)C[C@H](N(C)C)[C@H]2O)[C@](C)(O)C[C@@H](C)C(=O)[C@H](C)[C@H]2OC(=O)O[C@@]21C [Erythromycin Cyclocarbonate]
4. C#C[C@]1(OC(C)=O)CC[C@H]2[C@@H]3CCC4=C[C@@H](OC(C)=O)CC[C@@H]4[C@H]3CC[C@@]21C [Ethynodiol diacetate]
5. COc1cc(OC)c(NC(=O)Nc2cc(C)on2)cc1Cl
6. CC(NC(=O)C(Cc1ccccc1)NC(=O)OCc1ccccc1)C(=O)CF (stereo unspecified)

1: 88.4; 2: 99.6; 3: 99.5; 4: 78.8; 5: 74.5; 6: 101

Recorded values, source the supplement of paper PMC10981050.
